# SYSTEM_TESTED: T1, Anti-CD28 Fab (SEQ ID NOs: 696, 697)
# T1 construct: In the phage ELISA the Fab was biotinylated and captured on neutravidin coated plates
# TEST_NAME: phage ELISA; captured anti-CD28 Fab pre-incubated with CD28 antigen as competitor, anti-M13 HRP;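 further: crude clonal phage supernatants added without washing after CD28 pre-incubation, bound phage detected with HRP anti-M13 antibody, reference wells got blocking buffer lacking CD28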
Where no end group is shown, it is not given here.
QUANTITY: Anti-CD28 Fab signal in the presence of CD28 (phage binding ELISA)

# BINDER, EXPERIMENTAL_VALUE
rows = [
    ("YCEGHDVQYMQKCL (cysteine pairing not given here; also: displayed on phage by fusion to pIII, linker and pIII sequence not given here) [Phage-1198]", 0.08),
    ("YCEGHAPQYMSKCL (cysteine pairing not given here; also: displayed on phage by fusion to pIII, linker and pIII sequence not given here) [Phage-1204]", 0.08),
    ("YCDGHDARYMTKCL (cysteine pairing not given here; also: displayed on phage by fusion to pIII, linker and pIII sequence not given here) [Phage-1205]", 0.09),
]

We next turn to a different binder, shown below.
query: Bench note: what Anti-CD28 Fab signal in the presence of CD28 (phage binding ELISA) did YCEGHLWEYMKKCL (cysteine pairing not given here; also: displayed on phage by fusion to pIII, linker and pIII sequence not given here) [Phage-1197] show?
result: 0.07
